System: Sam68 (KHDRBS1)
Experiment: Sam68 small-molecule binders, primary screen, biochemical, small-molecule microarray, 635 nm fluorescence (AID 1125);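 note: score merges 667 nm channel intensity with signal to noise over triplicate slides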
Settings: small-molecule microarray binding, higher = more signal
Assign t whenever composite z-score does not fall below 1; assign f whenever it does.

Past entries and their recorded results:
{"COMPOUND": "O=C1O[C@@H](c2ccccc2)[C@@H](c2ccccc2)N2[C@@H](c3ccccc3OCCO)[C@]3(C(=O)Nc4ccc(C#CC5=CCCCC5)cc43)[C@@H](C(=O)Nc3nc4ccccc4s3)[C@H]12", "CLASS_NAME": "t"}
{"COMPOUND": "CC[C@@H]1C=C(C(=O)O)[C@H](c2ccco2)N1S(=O)(=O)c1ccc(C)cc1", "CLASS_NAME": "f"}
{"COMPOUND": "CC1CC/C=C\\[C@H]2OC34C=CCN(c5ccc(Cl)cc5)C(=O)[C@H]3N(CCO)C(=O)[C@]4(C)C2C(=O)O1 (some centres not stated)", "CLASS_NAME": "f"}
{"COMPOUND": "O=C1NC(=O)C2C1C=CC(C(O)Cc1ccccc1)N2Nc1ccc(Cl)cc1Cl (configuration not stated)", "CLASS_NAME": "f"}
{"COMPOUND": "COCCOC(=O)N1C(=O)[C@@]2(c3cc(C#Cc4ccc(OC)cc4)ccc31)[C@H](c1ccccc1OCCO)N1[C@H](c3ccccc3)[C@H](c3ccccc3)OC(=O)[C@H]1[C@@H]2C(=O)N1CCN(c2ncccn2)CC1", "CLASS_NAME": "f"}

Check the entry "C=CCN1C(=O)[C@]2(O[C@H](CCO)[C@@H]([Si](C)(C)c3ccc(OC)cc3)[C@@H]2C)c2cc(N3CCCCC3=O)ccc21" : does composite z-score equal or exceed 1?
t

Hello, I need to know if "CCCC=C(CCC)[C@@H](NS(=O)(=O)c1cccs1)c1ccc(C(=O)OC)cc1" has measured composite z-score not below 1. Thanks!
t

---

Assay: binders of probe aFGF10 on microarray, primary screen, stem cell growth factor project, biochemical, small-molecule microarray, fluorescence 635/667 (AID 1071);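 note: score merges 667 nm spot intensity and signal to noise from triplicate slides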
Details: higher = more signal
Kind request: treat 0.3 as inclusive, so composite z-score at 0.3 or higher is criterion met, anything lower is criterion not met.

Study these solved cases before continuing.
{"COMPOUND": "COC(=O)[C@@]1(Cc2ccc(F)cc2)[C@H]2c3cc(C(=O)N4CCCC4)n(Cc4cc(C)n(C)n4)c3C[C@H]2CN1C(=O)c1ccccc1", "CLASS_NAME": "criterion met"}
{"COMPOUND": "CC(=O)NCCCC[C@@H]1NC(=O)[C@@H]2C[C@H](C(=O)NCCCCN(C)C)[C@H](c3cccc(OCCO)c3)N2C1=O", "CLASS_NAME": "criterion not met"}
{"COMPOUND": "C=CCOC(=O)[C@H]1[C@@H]2C(=O)O[C@@H](c3ccccc3)[C@@H](c3ccccc3)N2[C@@H](c2ccc(OCCOC(=O)[C@H]3C[C@H]4C(=O)N5CCC[C@H]5C(=O)N4[C@H]3c3ccc(O)cc3)cc2)[C@]12C(=O)Nc1ccc(I)cc12", "CLASS_NAME": "criterion met"}
{"COMPOUND": "C#CCN(CC1=CCCCC1)[C@H](c1ccccc1Br)[C@@H](O)Cc1ccccc1", "CLASS_NAME": "criterion not met"}
{"COMPOUND": "O=C1c2ccccc2[C@](Cc2ccccc2I)(C(=O)NC2CC2)[C@H](c2ccc(CO)cc2)N1C1CCCCC1", "CLASS_NAME": "criterion met"}
{"COMPOUND": "CN1C(=O)C2C=CC(C(O)c3ccccc3)N(Nc3ccccc3)C2C1=O (configuration not stated)", "CLASS_NAME": "criterion not met"}

Hi team, for "C[C@]1(C(=O)NC2CC2)c2ccccc2C(=O)N(Cc2cc(C(F)(F)F)cc(C(F)(F)F)c2)[C@H]1c1ccc(CO)cc1" , is the recorded composite z-score at or above 0.3?
criterion met

---

Test: FRG1 promoter luciferase signal modulators, primary screen, FRG1 inhibition for FSHD, cell-based, C2C12 myotubes, firefly/Renilla luciferase, luminescence (AID 1084)
Settings: higher = more signal, called active from +8 up or from −8 down
Activity calls are given as the source filed them.
Item-by-item account of z-score

Please review the entries below; each comes with its answer.
{"ITEM_SMILES": "COCCOC(=O)N1C(=O)[C@@]2(c3cc(C#CCCO)ccc31)[C@H](C(=O)Nc1nc3ccccc3s1)[C@H]1C(=O)O[C@H](c3ccccc3)[C@H](c3ccccc3)N1[C@@H]2c1ccc(OCCO)cc1", "z-score": "1.2 (inactive)"}
{"ITEM_SMILES": "COC(=O)[C@@]1(Cc2ccc(F)cc2)[C@@H]2[C@@H](CC(=O)[C@H]2CC(=O)C(=O)N(C)C)CN1C(=O)c1ccccc1", "z-score": "-0.439 (inactive)"}
{"ITEM_SMILES": "COc1ccc([C@H]2C[C@H]3C(Br)=C[C@@H]2C(=O)[C@]32CO2)cc1", "z-score": "1.96 (inactive)"}

Now look at this one.
Please look at this compound and report its z-score: "[N-]=[N+]=NCc1ccccc1[C@@H]1OC(c2ccc(OCCCO)cc2)=N[C@]1(CCS(=O)(=O)c1ccccc1)C(=O)NCc1ccccc1"
-2.83 (inactive)

---

Assay: inhibitors of hydroxyurea-induced Chk1 phosphorylation, primary screen, imaging, HeLa, phospho-Chk1 nuclear intensity (AID 1187); note: test concentration not given here
Settings: hydroxyurea-induced phospho-Chk1 immunofluorescence imaging, higher = more signal
Class definitions on z-score: group A = under -0.3, group B = from -0.3 up to 0.3, group C = 0.3 and over

// known answers, use as guide
{"ITEM_SMILES": "COCCOC(=O)N1C(=O)[C@@]2(c3cc(C#CC4=CCCCC4)ccc31)[C@H](C(=O)Nc1nc3ccccc3s1)[C@H]1C(=O)O[C@H](c3ccccc3)[C@H](c3ccccc3)N1[C@@H]2c1ccccc1OCCO", "CLASS_NAME": "group B"}
{"ITEM_SMILES": "COc1ccc([Si](C)(C)[C@H]2[C@H](CCn3cc([C@H](O)c4ccccc4)nn3)O[C@@]3(C(=O)N(Cc4cccc(N5CCOC5=O)c4)c4ccccc43)[C@@H]2C)cc1", "CLASS_NAME": "group C"}
{"ITEM_SMILES": "CCCCC=C[C@@H](NC(=O)Oc1cccc(C(F)(F)F)c1)c1ccccc1", "CLASS_NAME": "group B"}
{"ITEM_SMILES": "O=C(NCc1ccc(F)cc1)[C@H]1C[C@H]2C(=O)N[C@@H](Cc3ccccc3)C(=O)N2[C@H]1c1ccc(O)cc1", "CLASS_NAME": "group A"}
{"ITEM_SMILES": "C=C(CCCC)C(=O)CC[C@H](OC(C)=O)c1cccc(OCCO)c1", "CLASS_NAME": "group B"}
{"ITEM_SMILES": "CCOC(=O)C[C@H]1[C@H](OC(=O)c2cc3ccccc3oc2=O)[C@@H](NC(=O)C2CCCCC2)c2cc(OCCCO)ccc2N1C(=O)c1ccccc1", "CLASS_NAME": "group C"}
{"ITEM_SMILES": "COCCOC(=O)N1C(=O)[C@@]2(c3cc(C#CC4=CCCCC4)ccc31)[C@H](C(N)=O)[C@H]1C(=O)O[C@H](c3ccccc3)[C@H](c3ccccc3)N1[C@@H]2c1ccc(OCCO)cc1", "CLASS_NAME": "group A"}
{"ITEM_SMILES": "CCCN1C(=O)[C@]2(CCS(=O)(=O)c3ccccc3)N=C(c3ccc(OCCCO)cc3)O[C@@H]2c2ccccc21", "CLASS_NAME": "group A"}

Class for "Cc1ccc(S[C@]2(C(=O)NC(C)C)CC(=O)N(Cc3ccccc3Cl)[C@@H]2c2ccc(CO)cc2I)cc1" ?
group C

Exercise: read the entry "C=C(COC)/C(=C/C[C@H](OC(=O)c1ccncc1)c1ccc(OCCO)cc1)c1cnc2ccccc2c1" and state which class it falls under.
group C

Pick a category. Item: "CCCCC(=C=CC[C@@H](O)c1ccccc1OCCO)CCO"
group C

Kindly identify the class of "O=C1O[C@H](c2ccccc2)[C@H](c2ccccc2)N2[C@H]1[C@@H](C(=O)N1CCN(c3ncccn3)CC1)[C@]1(C(=O)Nc3ccc(C#CC4=CCCCC4)cc31)[C@H]2c1ccc(O)cc1" .
group A

---

Assay: adipocyte viability effects, profiling panel, cell-based, 3T3-L1 adipocytes, calcein-AM fluorescence, 48 h, basal (AID 1163); note: test concentration not given here
Conditions: 3T3-L1 adipocytes viability, higher = more signal
QUANTITY_MEASURED: z-score
// return a plain number; no unit text

{"MOLECULE": "O=C1OCCC/C=C\\[C@H]2OC34C=CCN(c5ccc6ccccc6c5)C(=O)[C@H]3N(CCCCCCO)C(=O)[C@@H]4C12 (stereo partly drawn)", "z-score": 0.817}
{"MOLECULE": "CC(C)C[C@@H]1NC(=O)[C@@H]2C[C@H](C(=O)NCCCCCN)[C@H](c3cccc(OCCO)c3)N2C1=O", "z-score": 0.624}
{"MOLECULE": "COc1ccc(COC2OC[C@]3(C)[C@H]4C5=C(CN3C(=O)OC(C)(C)C)[C@H](C)C(CO)C(CO)C5CC[C@@H]24)cc1 (stereo partly drawn)", "z-score": 0.627}
{"MOLECULE": "CCc1oc(CC[C@@H](CO)NC(=O)NCCn2cc(C3(O)CCCCC3)nn2)c(C(=O)OC)c1C(=O)OC", "z-score": -0.33}
{"MOLECULE": "COc1ccc(C(O)C2C=CC3C(=O)N(c4ccccc4)C(=O)C3N2Nc2ccccc2F)cc1OCc1ccccc1 (stereo not drawn)", "z-score": -1.77}

Name the recorded z-score of the item "O=C(NCc1ccccc1)[C@@H]1c2ccccc2C(=O)N(CC23CC4CC(CC(C4)C2)C3)[C@H]1c1ccc(CO)cc1" in your answer.
-0.475

Annotate the molecule "COC(=O)[C@@]1(Cc2ccccc2)[C@H]2c3cc(C(=O)N4CCCC4)n(Cc4cccc5ccccc45)c3C[C@H]2CN1C(=O)c1ccccc1" with its measured z-score.
-0.57
